All values here come from PubChem BioAssay AID1745844.

System: rodent lifetime carcinogenesis bioassay, tumor incidence TD50
Assay: carcinogenic potency in animals, long-term in vivo studies, CPDB compilation (AID 1745844)
Details: hamster; strain Syrian Golden; females; in feed; site: any site (literature study); lesion: several types; types named in the paper; dosed 100 weeks; study length 114 weeks
Calls of active or inactive are those of the source. No rule for the calls is given here.
Assay metric: TD50

* ClC1=C(Cl)[C@]2(Cl)[C@@H]3[C@@H]4C[C@@H]([C@H]5O[C@@H]45)[C@@H]3[C@@]1(Cl)C2(Cl)Cl | 355 mg/kg/day (inactive)

---

Test system: rodent lifetime carcinogenesis bioassay, tumor incidence TD50
Assay: carcinogenic potency in animals, long-term in vivo studies, CPDB compilation (AID 1745844)
Settings: mouse; strain Charles River CD1; males; in feed; site: liver; lesion: several types; types named in the paper; dosed 104 weeks; study length 104 weeks
Assay metric: TD50

• O=C(O)c1cc(Oc2ccc(C(F)(F)F)cc2Cl)ccc1[N+](=O)[O-] = 93.8 mg/kg/day

---

Tested on: rodent lifetime carcinogenesis bioassay, tumor incidence TD50
Test: carcinogenic potency in animals, long-term in vivo studies, CPDB compilation (AID 1745844)
Details: mouse; strain Swiss albino; males; in drinking water; site: blood vessels; lesion: angiosarcoma; dosed 62 weeks; study length 62 weeks
Assay metric: TD50

• CN(C)N = 2.09 mg/kg/day

---

Test system: rodent lifetime carcinogenesis bioassay, tumor incidence TD50
Test: carcinogenic potency in animals, long-term in vivo studies, CPDB compilation (AID 1745844)
Settings: mouse; strain D2B6F1 mice; males; in feed; site: liver; lesion: hepatocellular carcinoma; dosed 87 weeks; study length 87 weeks
Assay metric: TD50

- ClC1=C(Cl)C2(Cl)C3C(Cl)C(Cl)CC3C1(Cl)C2(Cl)Cl (stereo unspecified): 5.21 mg/kg/day

---

Tested on: rodent lifetime carcinogenesis bioassay, tumor incidence TD50
Assay: carcinogenic potency in animals, long-term in vivo studies, CPDB compilation (AID 1745844)
Conditions: rat; strain Fischer 344; males; in feed; site: subcutaneous tissue; lesion: fibrosarcoma + fibroma + sarcoma, NOS; dosed 103 weeks; study length 104 weeks
Assay metric: TD50

* N=C1C=CC(=C(c2ccc(N)cc2)c2ccc(N)cc2)C=C1 | 33.4 mg/kg/day

---

Tested on: rodent lifetime carcinogenesis bioassay, tumor incidence TD50
Assay: carcinogenic potency in animals, long-term in vivo studies, CPDB compilation (AID 1745844)
Details: rat; strain F344/DuCrj; males; in drinking water; site: urinary bladder; lesion: papilloma; dosed 106 weeks; study length 112 weeks
Assay metric: TD50

* CCCCN(CCCCO)N=O | 0.447 mg/kg/day

---

System: rodent lifetime carcinogenesis bioassay, tumor incidence TD50
Assay: carcinogenic potency in animals, long-term in vivo studies, CPDB compilation (AID 1745844)
Conditions: rat; strain Sprague-Dawley; males; i.p.; site: any site (literature study); lesion: malignant tumor; dosed 104 weeks; study length 104 weeks
Active and inactive are the calls of the source. No rule for the calls is given here.
# TD50 per record follows
Assay metric: TD50

* CCC1C(=O)OCC1Cc1cncn1C (stereo not drawn) | 1750 mg/kg/day (inactive)
* CN1CCC[C@H]1c1cccnc1 | 6.38 mg/kg/day (inactive)
* CC1=C(/C=C/C(C)=C/C=C/C(C)=C/C(=O)O)C(C)(C)CCC1 | 188 mg/kg/day (inactive)

---

Test system: rodent lifetime carcinogenesis bioassay, tumor incidence TD50
Assay: carcinogenic potency in animals, long-term in vivo studies, CPDB compilation (AID 1745844)
Conditions: rat; strain Fischer 344; males; by gavage; site: palate + tongue; lesion: squamous-cell carcinoma + squamous-cell papilloma; dosed 94 weeks; study length 104 weeks
Assay metric: TD50

* ClCC(Cl)CCl | 4.48 mg/kg/day

---

Test system: rodent lifetime carcinogenesis bioassay, tumor incidence TD50
Experiment: carcinogenic potency in animals, long-term in vivo studies, CPDB compilation (AID 1745844)
Conditions: rat; strain Fischer 344; females; in drinking water; site: pituitary gland; lesion: adenoma; dosed 104 weeks; study length 104 weeks
Activity calls are given as the source filed them. The rule behind the calls is not given here.
Assay metric: TD50

- CN(C)N: 14.8 mg/kg/day (inactive)

---

Tested on: rodent lifetime carcinogenesis bioassay, tumor incidence TD50
Assay: carcinogenic potency in animals, long-term in vivo studies, CPDB compilation (AID 1745844)
Settings: mouse; strain Charles River CD1; males; in feed; site: urinary bladder; lesion: squamous-cell carcinoma; dosed 40 weeks; study length 77 weeks
Assay metric: TD50

• O=CNc1nc(-c2ccc([N+](=O)[O-])o2)cs1 = 250 mg/kg/day

---

Test system: rodent lifetime carcinogenesis bioassay, tumor incidence TD50
Assay: carcinogenic potency in animals, long-term in vivo studies, CPDB compilation (AID 1745844)
Conditions: mouse; strain B6AKF1; males; oral dosing; site: liver; lesion: hepatoma; dosed 58 weeks; study length 58 weeks
Assay metric: TD50

* ClC1(Cl)C2(Cl)C3(Cl)C4(Cl)C(Cl)(Cl)C5(Cl)C3(Cl)C1(Cl)C5(Cl)C24Cl (stereo unspecified) | 2.13 mg/kg/day

---

Test system: rodent lifetime carcinogenesis bioassay, tumor incidence TD50
Assay: carcinogenic potency in animals, long-term in vivo studies, CPDB compilation (AID 1745844)
Details: rat; strain Fischer 344; males; in feed; site: urinary bladder; lesion: transitional-cell carcinoma; dosed 100 weeks; study length 100 weeks
Assay metric: TD50

• O=NN(c1ccccc1)c1ccccc1 = 299 mg/kg/day

---

Test system: rodent lifetime carcinogenesis bioassay, tumor incidence TD50
Assay: carcinogenic potency in animals, long-term in vivo studies, CPDB compilation (AID 1745844)
Conditions: rat; strain Charles River CD (Sprague-Dawley); females; by gavage; site: gastric mucosa; lesion: carcinoid tumor, malignant; dosed 105 weeks; study length 105 weeks
Assay metric: TD50

* NC(N)=Nc1nc(CSCCNc2nsnc2N)cs1 | 6270 mg/kg/day

---

Test system: rodent lifetime carcinogenesis bioassay, tumor incidence TD50
Assay: carcinogenic potency in animals, long-term in vivo studies, CPDB compilation (AID 1745844)
Details: rat; strain Sprague-Dawley; females; inhaled; site: liver; lesion: hepatocellular carcinoma; dosed 81 weeks; study length 103 weeks
Assay metric: TD50

• C=CBr = 749 mg/kg/day

---

Test system: rodent lifetime carcinogenesis bioassay, tumor incidence TD50
Test: carcinogenic potency in animals, long-term in vivo studies, CPDB compilation (AID 1745844)
Settings: mouse; strain Swiss albino; females; in drinking water; site: lung; lesion: adenoma; dosed 109 weeks; study length 109 weeks
Assay metric: TD50

* CCCCN(N)CCCC | 51.5 mg/kg/day

---

Test system: rodent lifetime carcinogenesis bioassay, tumor incidence TD50
Experiment: carcinogenic potency in animals, long-term in vivo studies, CPDB compilation (AID 1745844)
Settings: mouse; strain Swiss; males; in drinking water; site: lung; lesion: several types; types named in the paper; dosed 120 weeks; study length 124 weeks
Active and inactive are the calls of the source. How the calls were made is not given here.
Assay metric: TD50

- N: 15300 mg/kg/day (inactive)

---

System: rodent lifetime carcinogenesis bioassay, tumor incidence TD50
Assay: carcinogenic potency in animals, long-term in vivo studies, CPDB compilation (AID 1745844)
Conditions: rat; strain Sprague-Dawley; females; in feed; site: kidney; lesion: several types; types named in the paper; dosed 46 weeks; study length 57 weeks
Assay metric: TD50

* NNc1nc(-c2ccc([N+](=O)[O-])o2)cs1 | 36.8 mg/kg/day

---

# TD50 per record follows
System: rodent lifetime carcinogenesis bioassay, tumor incidence TD50
Assay: carcinogenic potency in animals, long-term in vivo studies, CPDB compilation (AID 1745844)
Details: mouse; strain Swiss albino; males; in drinking water; site: lung; lesion: adenoma; dosed 93 weeks; study length 93 weeks
Assay metric: TD50 (mg/kg/day)

• C=CCN(N)CC=C = 29.8
• C=CCNN = 28.9
• CCCNN = 41.3

---

System: rodent lifetime carcinogenesis bioassay, tumor incidence TD50
Test: carcinogenic potency in animals, long-term in vivo studies, CPDB compilation (AID 1745844)
Settings: rat; strain Wistar; males; in feed; site: several sites; sites named in the paper; lesion: carcinoma; dosed 40 weeks; study length 83 weeks
Assay metric: TD50

- O=[N+]([O-])c1ccc(-c2cnc3ccccn23)o1: 104 mg/kg/day

---

Tested on: rodent lifetime carcinogenesis bioassay, tumor incidence TD50
Assay: carcinogenic potency in animals, long-term in vivo studies, CPDB compilation (AID 1745844)
Conditions: rat; strain Wistar; females; inhaled; site: nose; lesion: adenocarcinoma; dosed 111 weeks; study length 121 weeks
Assay metric: TD50

• CC=O = 370 mg/kg/day

---

Tested on: rodent lifetime carcinogenesis bioassay, tumor incidence TD50
Experiment: carcinogenic potency in animals, long-term in vivo studies, CPDB compilation (AID 1745844)
Settings: hamster; strain Syrian Golden; females; in drinking water; site: blood vessels; lesion: angiosarcoma; dosed 67 weeks; study length 67 weeks
Assay metric: TD50

• CNNC = 0.156 mg/kg/day

---

Tested on: rodent lifetime carcinogenesis bioassay, tumor incidence TD50
Assay: carcinogenic potency in animals, long-term in vivo studies, CPDB compilation (AID 1745844)
Conditions: mouse; strain Swiss albino; females; by gavage; site: liver; lesion: several types; types named in the paper; dosed 52 weeks; study length 133 weeks
Assay metric: TD50 (mg/kg/day)

- N[C@@H](CCC(=O)NNc1ccc(C(=O)O)cc1)C(=O)O: 41400
